# target system: E3 ubiquitin-protein ligase CBL-B (Homo sapiens)
# Sequence (Q13191 whole entry): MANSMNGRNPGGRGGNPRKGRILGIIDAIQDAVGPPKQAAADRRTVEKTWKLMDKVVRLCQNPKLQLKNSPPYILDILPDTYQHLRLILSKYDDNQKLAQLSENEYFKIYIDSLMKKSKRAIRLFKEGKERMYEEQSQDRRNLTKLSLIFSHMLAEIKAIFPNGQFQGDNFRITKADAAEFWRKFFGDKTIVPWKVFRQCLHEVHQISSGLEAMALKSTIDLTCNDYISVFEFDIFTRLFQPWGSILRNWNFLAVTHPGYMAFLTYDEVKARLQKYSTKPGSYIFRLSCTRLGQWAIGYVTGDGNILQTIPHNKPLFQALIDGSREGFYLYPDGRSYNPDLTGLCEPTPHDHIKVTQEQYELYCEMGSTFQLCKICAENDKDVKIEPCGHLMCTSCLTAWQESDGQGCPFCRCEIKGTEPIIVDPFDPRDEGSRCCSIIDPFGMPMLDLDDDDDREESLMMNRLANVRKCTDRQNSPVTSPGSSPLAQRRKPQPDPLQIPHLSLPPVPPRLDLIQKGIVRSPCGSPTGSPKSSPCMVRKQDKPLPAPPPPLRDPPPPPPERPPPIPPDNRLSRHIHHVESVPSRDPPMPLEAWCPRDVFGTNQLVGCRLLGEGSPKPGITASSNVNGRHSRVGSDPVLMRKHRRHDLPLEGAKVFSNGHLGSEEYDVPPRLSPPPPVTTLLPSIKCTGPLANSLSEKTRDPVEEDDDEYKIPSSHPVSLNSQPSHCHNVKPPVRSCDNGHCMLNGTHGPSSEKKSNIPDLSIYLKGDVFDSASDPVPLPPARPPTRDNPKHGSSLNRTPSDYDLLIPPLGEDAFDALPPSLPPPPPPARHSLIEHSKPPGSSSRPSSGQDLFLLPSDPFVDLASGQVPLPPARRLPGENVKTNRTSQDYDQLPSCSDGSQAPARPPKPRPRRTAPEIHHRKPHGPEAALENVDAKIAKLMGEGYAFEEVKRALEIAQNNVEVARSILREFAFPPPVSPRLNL
# test method notes: Inhibition of recombinant Cbl-b (unknown origin) in presence of ATP incubated for 60 mins by ELISA analysis
value type: pIC50
One number for each entry, as −log10 of the molar value.

[in] // output pIC50; input `Cn1cc(Br)cc1C(=O)NC[C@@H]1[C@@H](CNC(=O)c2ccc(Br)[nH]2)Cc2nc(N)[nH]c2[C@H]1c1c[nH]c(N)n1` ; system E3 ubiquitin-protein ligase CBL-B (Homo sapiens)
[out] 4.48

----------
# Test system: A549
# test method notes: Cytotoxicity against human A549 cells assessed as inhibition of cell growth incubated for 48 hrs by MTT assay
# Type: functional, cell-based
# condition summary: A549, 48 h
value type: pIC50
Give bare numbers, as −log10 of the molar value.

[in] State, in one line, measured pIC50 of `CC(C)=C1C[C@@]2(COC(=O)Cc3cc(O)c(O)c(Cl)c3)C(=CC1=O)CC[C@@H](O)[C@@H]2C`
[out] 5.49
